Source listed as patent US20100120715A1.

subjectOfTest: Class C P99 AmpC (Enterobacter cloacae)
Sequence (P05364 21-381): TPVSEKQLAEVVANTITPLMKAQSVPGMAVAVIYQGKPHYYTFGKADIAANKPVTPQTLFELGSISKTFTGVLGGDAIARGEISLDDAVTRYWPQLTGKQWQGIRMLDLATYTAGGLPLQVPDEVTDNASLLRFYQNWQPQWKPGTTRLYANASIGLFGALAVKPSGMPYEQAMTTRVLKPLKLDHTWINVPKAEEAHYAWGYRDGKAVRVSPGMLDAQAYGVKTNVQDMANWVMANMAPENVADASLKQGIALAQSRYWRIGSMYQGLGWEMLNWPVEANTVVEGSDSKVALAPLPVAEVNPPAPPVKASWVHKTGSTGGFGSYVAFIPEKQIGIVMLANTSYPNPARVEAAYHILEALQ
pIC50: −log10 of the molar value.
Form field: pIC50 (one value per entry).

Worked cases, answers included:
[[record]]
compound = "O=C(Cc1cc(O)ccc1O)N[C@@H](Cc1cccc(C(=O)O)c1O)B(O)O [Example 18]"
result = "> 8.00"

[[record]]
compound = "O=C(CNC(=O)c1ccccc1)N[C@@H](Cc1cccc(C(=O)O)c1O)B(O)O [Example 50]"
result = "> 8.00"

[[record]]
compound = "Nc1nc(CC(=O)N[C@@H](Cc2cccc(C(=O)O)c2O)B(O)O)cs1.O=CO [Example 39, formate salt]"
result = "> 8.00"

[[record]]
compound = "CC(C)(C)CC(=O)N[C@@H](Cc1cccc(C(=O)O)c1O)B(O)O [Example 25]"
result = "7.00 to 8.00"

[[record]]
compound = "O=C(N[C@@H](Cc1cccc(C(=O)O)c1O)B(O)O)c1cncnc1 [Example 60]"
result = "> 8.00"

[[record]]
compound = "O=C(N[C@@H](Cc1cccc(C(=O)O)c1O)B(O)O)c1ccccc1 [Example 13]"
result = "> 8.00"

[[record]]
compound = "CC(C)C(=O)N[C@@H](Cc1cccc(C(=O)O)c1O)B(O)O [Example 14]"
result = "> 8.00"

[[record]]
compound = "O=C(Cc1cccs1)N[C@@H](Cc1cccc(C(=O)O)c1O)B(O)O [Example 1]"
result = "> 8.00"


[ask] API: value(readout= pIC50, system= Class C P99 AmpC (Enterobacter cloacae), query= O=C(Cc1ccccn1)N[C@@H](Cc1cccc(C(=O)O)c1O)B(O)O.O=CO [Example 61, formate salt] )
[reply] > 8.00

[ask] API: value(readout= pIC50, system= Class C P99 AmpC (Enterobacter cloacae), query= Cc1nc(-c2cccc(C(=O)N[C@@H](Cc3cccc(C(=O)O)c3O)B(O)O)c2)no1 [Example 47] )
[reply] > 8.00

[ask] API: value(readout= pIC50, system= Class C P99 AmpC (Enterobacter cloacae), query= O=C(Cn1cccn1)N[C@@H](Cc1cccc(C(=O)O)c1O)B(O)O [Example 40] )
[reply] 7.00 to 8.00

[ask] API: value(readout= pIC50, system= Class C P99 AmpC (Enterobacter cloacae), query= COc1ccc(OC)c(CC(=O)N[C@@H](Cc2cccc(C(=O)O)c2O)B(O)O)c1 [Example 17] )
[reply] > 8.00

[ask] API: value(readout= pIC50, system= Class C P99 AmpC (Enterobacter cloacae), query= O=C(N[C@@H](Cc1cccc(C(=O)O)c1O)B(O)O)c1cccs1 [Example 11] )
[reply] > 8.00

[ask] API: value(readout= pIC50, system= Class C P99 AmpC (Enterobacter cloacae), query= NCCC(=O)N[C@@H](Cc1cccc(C(=O)O)c1O)B(O)O.O=CO [Example 38, formate salt] )
[reply] 6.00 to 7.00

[ask] API: value(readout= pIC50, system= Class C P99 AmpC (Enterobacter cloacae), query= O=C(N[C@@H](Cc1cccc(C(=O)O)c1O)B(O)O)c1cn2ccsc2n1 [Example 56] )
[reply] 6.00 to 7.00
